- assayNotes: Half-life in male SPF Sprague-Dawley rat at 10 mg/kg, po measured after 24 hrs by LC-MS/MS analysis
- Assay type: ADME, organism-based
- conditions: in vivo
property: half-life

Q. GET /values?readout=half-life&item= `COc1cc(N2CCOCC2)c2cc1Nc1ncc(C)c(n1)Nc1ccc(cc1P(C)(C)=O)OCCCn1cc-2cn1`
A. 4.32 h

---

- assayNotes: Cmax in male SPF Sprague-Dawley rat at 10 mg/kg, po measured after 24 hrs by LC-MS/MS analysis
- Type: ADME, organism-based
- conditions: in vivo
property: Cmax (ng/mL)
Provide the reading as a plain figure in ng/mL.

Q. GET /values?readout=Cmax&item= `COc1cc(N2CCOCC2)c2cc1Nc1ncc(C)c(n1)Nc1ccc(cc1P(C)(C)=O)OCCCn1cc-2cn1`
A. 1820
